Value source: paper PMC2756588

- studySystem: Bem1-2, P29366
- Sequence (P29366 139-227): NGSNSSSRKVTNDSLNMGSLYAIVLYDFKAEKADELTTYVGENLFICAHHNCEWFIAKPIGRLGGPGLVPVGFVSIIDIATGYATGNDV
- experiment: SPOT array
- experimentalSetup: median of control spots 4347
observationType: SPOT intensity

# count of solved cases: 2
| binder | recordedMeasurement |
| --- | --- |
| QPQRTAPKPPISAPR | 45 |
| RRRDFGAPANKRPRR | 4 |

A. TTAPALPSLPPPPLL
B. RSLRKRPTSPSISGS
C. MARRRLPDRPPNGIG
Enquiry: Descending sort on SPOT intensity required. # respond with the labels, arranged in the requested order
Return: C, B, A
(C: 78, B: 5, A: 0)

a. YHSRRHPLALGFKYV
b. TIRRRAPLSLLESHT
Enquiry: I'd appreciate it if you could identify which of a and b has the greater SPOT intensity. // caller expects the label of the chosen entry
Return: a
(a: 10, b: 4)

a. KNRKNLPTIPIRLSG
b. PPPPPPPPPPPLPQS
c. KWVRRPKLMTPLTFS
d. KFIPSRPAPKPPSSA
Enquiry: # rank by SPOT intensity, ascending (min first) Hello, could you send the labels back in the order asked? Thank you.
Return: b, c, a, d
